B1: TPR 5TU (parent)
chain: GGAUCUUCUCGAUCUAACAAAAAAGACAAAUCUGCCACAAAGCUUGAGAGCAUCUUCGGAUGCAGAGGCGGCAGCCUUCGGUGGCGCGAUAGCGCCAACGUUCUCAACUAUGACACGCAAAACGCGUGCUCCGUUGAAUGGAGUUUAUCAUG

# Variants of: B1
# method.description: polymerase ribozyme fitness, log enrichment relative to wild type (log ratio); higher = more active; in vitro selection for triplet polymerase activity
This sample holds only a part of the variants without activity.
Rule: polymerase ribozyme fitness (log ratio) of -2 or more gives label 1; anything lower gives label 0.

Is it the case that U31A U134A has polymerase ribozyme fitness (log ratio) reaching or exceeding -2?
label 1

Next: A23G C38U U61A C69A C76U C96G C116U G117U
label 0

Next: A147G
label 1

Next: G59C C87G
label 0

Next: A29C A52G C87U G100C A138U U139A A147C
label 0

Next: A52U C95U
label 1

Next: U9G U31G G83C C99U U144G
label 0

Next: U33A C43A C76U G92A G117U
label 0

Next: G50C G58A
label 1

Next: C10G A52C G70U C85G G117U
label 0

Next: U13G C79A C103U
label 0

Next: A41C C57U U82C G141A
label 1

Next: A30G A49C C93G
label 0

Next: C35U C116U A120G
label 1

Next: U55C C95U C103A
label 1

Next: C54A C96U A113G
label 0

Next: U13C U61C C85U A89C U144A
label 0

Next: C27A C32U G46A G86U C105A
label 0

Next: U15C U56A C79A G80U C96U C103A A107C U146A
label 0

Next: G46C U53A G92U U111G U134C
label 0

Next: A22U G46A
label 1

Next: A16C A24U G46C C105G C108G
label 0

Next: C18G C36A C95A C96A
label 0

Next: A22C A29C G68A G81A C85A C105G A142U
label 0

Next: U7A A110C A138U
label 0

Next: C14A G58U
label 1

Next: U53A U55A
label 0

Next: A29U U44A C85G G124A G152A
label 0

Next: A39G G50C G65C A110G A120G
label 0

Next: A21U A142U
label 1

Next: C27A G58A G84A
label 0

Next: C36U U55G C118G
label 1

Next: U31G G94U A119U
label 1

Next: C76U A119C C123U
label 1

Next: U31A C38U C95U C96A
label 1

Next: A19G C96U U101G
label 1

Next: U9C A17C C54U A120G
label 0

Next: G86U G88A
label 0

Next: A17U C87G
label 0

Next: C51G G94A U135A
label 0

Next: G62A G84A U135A
label 1

Next: G62A C116U
label 1

Next: A22G G65A A97U
label 0

Next: U53A U55A C95A A98G C123U G143C
label 0

Next: U44A C116G
label 0

Next: A41U C114A
label 0
